- Test system: PI(3,4)P2 liposomes
- ASSAY_SUMMARY: Yeast proteome chip probed with PI(3,4)P2 liposomes
- COND: liposome binding signal on yeast proteome chip, Cy3-streptavidin detection
- Description: To identify PI-binding proteins in yeast, liposomes were used as probes because the liposome provides the most relevant physiological condition to assay the interactors. Six types of liposomes were used. Each contains phosphatidylcholine (“PC”) with 1% (w/w) N-(biotinoyl)-1,2-dihexadecanoyl-sn-glycero-3-phosphoethanolamine, triethylammonium salt (biotin DHPE). The biotinylated lipid serves as a label that can be detected by Cy3-streptavidin (21). […]
ASSAY_READOUT: PI(3, 4)P2
Answers are plain numbers.

Below, each entry is followed by its recorded PI(3, 4)P2 result.
[
  {
    "MOLECULE": "BUD32: yeast GST-HisX6 fusion protein on proteome chip (protein, UniProt P53323 1-261, looked up, GST-His6 fusion tag, yeast GST-HisX6 fusion protein on proteome chip) EKC/KEOPS complex subunit …: MTQEFIDKVSSYLTPDVDIAPISQGAEAIVFTTTTHPYLPRAKDSHQKYIIKYRPPKRYRHPQIDQALTKHRTLNESRLLAKLYLIPGLCVPQLIACDPYNGFIWLEFLGEDLPGGHGFSNLKNFLWMHDQDPYSDLVATTLRKVGRQIGLLHWNDYCHGDLTSSNIVLVRDGARWTPHLIDFGLGSVSNLVEDKGVDLYVLERAILSTHSKHAEKYNAWIMEGFEEVYREQGAKGAKKLKEVTKRFEEVRLRGRKRSMLG",
    "PI(3, 4)P2": 249.28
  },
  {
    "MOLECULE": "PAU5: yeast GST-HisX6 fusion protein on proteome chip (protein, UniProt P43575 1-122, looked up, GST-His6 fusion tag, yeast GST-HisX6 fusion protein on proteome chip) Seripauperin-5: MVKLTSIAAGVAAIAAGASAAATTTLSQSDERVNLVELGVYVSDIRAHLAEYYSFQAAHPTETYPVEIAEAVFNYGDFTTMLTGIPADQVTRVITGVPWYSSRLKPAISSALSADGIYTIAN",
    "PI(3, 4)P2": "−5.02"
  },
  {
    "MOLECULE": "ROT1: yeast GST-HisX6 fusion protein on proteome chip (protein, UniProt Q03691 25-256, looked up, GST-His6 tag, yeast GST-HisX6 fusion protein on proteome chip) Protein ROT1: EDESNSIYGTWSSKSNQVFTGPGFYDPVDELLIEPSLPGLSYSFTEDGWYEEATYQVSGNPRNPTCPMASLIYQHGTYNISENGTLVLNPIEVDGRQLFSDPCNDDGVSTYSRYNQTETFKEYAVGIDPYHGIYTLQLYQYDGTPMQPLYLAYRPPMMLPTETLNPTSSATSTDDPSSNKKRSLRSLVRRSLENRHKTNAIKRQNTSFLTSNAIWYISAGMLGVGSLLFLAF",
    "PI(3, 4)P2": 137.98
  },
  {
    "MOLECULE": "APA2: yeast GST-HisX6 fusion protein on proteome chip (protein, UniProt P22108 1-325, looked up, GST-His6 fusion tag, yeast GST-HisX6 fusion protein on proteome chip) Diadenosine …: MIEENLKQKIHDKFVAAKKNGHLKVTHAESKKLKDPQTTTQYWVTFAPSLALKPDANKNSDSKAEDPFANPDEELVVTEDLNGDGEYKLLLNKFPVVPEHSLLVTSEFKDQRSALTPSDLMTAYNVLCSLQGDKDDDVTCERYLVFYNCGPHSGSSQDHKHLQIMQMPEKFIPFQDVLCNGKDHFLPTFNAEPLQDDKVSFAHFVLPLPESSDQVDEDLLAMCYVSLMQRALTFFQDWTNESPELTKSYNVLLTKKWICVVPRSHAKSGPPLMLNINSTGYCGMILVKDREKLENLTEDPHLVDKSLLQCGFPNTAGQKPTEYHY",
    "PI(3, 4)P2": 31.40
  }
]

Consider the record given below.
Ask | Tell me the measured PI(3, 4)P2 of PKR1: yeast GST-HisX6 fusion protein on proteome chip (protein, UniProt Q03880 1-122, looked up, GST-His6 tag, yeast GST-HisX6 fusion protein on proteome chip) V-type ATPase assembly factor …: MANFFVRLWESVFEPGTSPQLIIATHVSFVALLLTLIWLIYATNGNIHFYALFCISLLLWITVIWFINELSHVKLKDNDELDKDANKKDDSAIKEDSEDKQESGKSTSTARRTQAQSRSRKA , please.
Reply | 37.52
